Reference source: patent US8241627B2

We begin with a simple list: items and their reported Koff, interaction of αL I-domains with ICAM-1.
- TARGET UNDER TEST: ICAM-1 (Homo sapiens, UniProt P05362)
- Sequence (P05362 28-480 limits assumed): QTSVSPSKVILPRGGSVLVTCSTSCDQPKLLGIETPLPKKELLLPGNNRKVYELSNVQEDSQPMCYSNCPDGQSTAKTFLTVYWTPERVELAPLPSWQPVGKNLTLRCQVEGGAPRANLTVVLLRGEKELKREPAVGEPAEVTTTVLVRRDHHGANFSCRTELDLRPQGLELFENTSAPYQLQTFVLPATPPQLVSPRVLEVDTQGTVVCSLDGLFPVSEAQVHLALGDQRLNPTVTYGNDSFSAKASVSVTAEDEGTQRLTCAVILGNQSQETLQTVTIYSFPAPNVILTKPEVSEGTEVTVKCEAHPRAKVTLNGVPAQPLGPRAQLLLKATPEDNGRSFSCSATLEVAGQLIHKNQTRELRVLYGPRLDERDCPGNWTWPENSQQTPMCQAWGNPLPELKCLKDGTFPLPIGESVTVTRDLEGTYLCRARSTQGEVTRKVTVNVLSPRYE
- PROTOCOL SUMMARY: BIAcore binding of soluble αL I-domains to ICAM-1
- MEASUREMENT CONDITIONS: curve fitting of dissociation phase, 1:1 binding model
State the answer as a number, implicitly in s⁻¹.

Here are 2 molecules together with their reported answers.
{"columns": ["MOLECULE", "OBS VALUE"],
 "data": [
  ["wild-type I-domain: wild-type αL I-domain, soluble recombinant or expressed on K562 surface via PDGFR transmembrane domain (protein) GNVDLVFLFDGSMSLQPDEFQKILDFMKDVMKKLSNTSYQFAAVQFSTSYKTEFDFSDYVKRKDPDALLKHVKHMLLLTNTFGAINYVATEVFREELGARPDATKVLIIITDGEATDSGNIDAAKDIIRYIIGIGKHFQTKESQETLHKFASKPASEFVKILDTFEKLKDLFTELQKKIY", 3.00],
  ["K287C/K294C: human αL (LFA-1) I-domain with K287 and K294 replaced by cysteines; high affinity locked open; tested in intact LFA-1, cell-surface and soluble forms (protein, human αL (LFA-1) I-domain with K287 and K294 replaced by cysteines; tested in intact LFA-1, cell-surface and soluble forms) GNVDLVFLFDGSMSLQPDEFQKILDFMKDVMKKLSNTSYQFAAVQFSTSYKTEFDFSDYVKRKDPDALLKHVKHMLLLTNTFGAINYVATEVFREELGARPDATKVLIIITDGEATDSGNIDAAKDIIRYIIGIGKHFQTKESQETLHKFASKPASEFVCILDTFECLKDLFTELQKKIY", 0.0230]
]}

With those in mind, consider the next molecule.
[ask] Param item = L161C/F299C: intermediate-affinity open αL I-domain mutant, cysteines for L161 and F299 (protein) GNVDLVFLFDGSMSLQPDEFQKILDFMKDVMKKCSNTSYQFAAVQFSTSYKTEFDFSDYVKRKDPDALLKHVKHMLLLTNTFGAINYVATEVFREELGARPDATKVLIIITDGEATDSGNIDAAKDIIRYIIGIGKHFQTKESQETLHKFASKPASEFVKILDTFEKLKDLCTELQKKIY ; retrieve measured Koff, interaction of αL I-domains with ICAM-1.
[reply] 0.513
